- Tested on: leukotriene biosynthesis
- assay_info: Inhibition of leukotriene biosynthesis in vivo, rat peritoneal anaphylaxis model
- experimental_setup: one hour prior to antigen challenge
Percent Leukotriene inhibition at 100 μmol/kg oral dose by entry:
Entry rule: numbers only, all in %.

> print(dat)
                                smiles.text               measured.on  experimental.result
1  CC(C)c1ccc2c(c1)c(SC(C)(C)C)c(CC(C)(C)C=NO)n2Cc1ccc(Cl)cc1  leukotriene biosynthesis                   46
2  CC(C)c1ccc2c(c1)c(SC(C)(C)C)c(CC(C)(C)C(=O)NCCNC(=O)N(C)O)n2Cc1ccc(Cl)cc1  leukotriene biosynthesis                   86
3  CC(C)c1ccc2c(c1)c(SC(C)(C)C)c(CC(C)(C)CNC(N)=O)n2Cc1ccc(Cl)cc1  leukotriene biosynthesis                   86

Known value: leukotriene biosynthesis Percent Leukotriene inhibition at 100 μmol/kg oral dose of the compound CC(C)c1ccc2c(c1)c(SC(C)(C)C)c(CC(C)(C)CN(O)C(N)=O)n2Cc1ccc(Cl)cc1 equals 68

Known value: leukotriene biosynthesis Percent Leukotriene inhibition at 100 μmol/kg oral dose of the compound CC(C)c1ccc2c(c1)c(SC(C)(C)C)c(CC(C)(C)C=NOCC(=O)O)n2Cc1ccc(Cl)cc1 equals 99
